Collected hERG current change (%, negative = inhibition) at 10uM values appear next to each entry.
Biological target: human ether-à-go-go-related gene (hERG) potassium channel (human);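 also: peak tail current of the secondary pulse compared with the same well before compound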
Sequence (Q12809 whole entry, looked up): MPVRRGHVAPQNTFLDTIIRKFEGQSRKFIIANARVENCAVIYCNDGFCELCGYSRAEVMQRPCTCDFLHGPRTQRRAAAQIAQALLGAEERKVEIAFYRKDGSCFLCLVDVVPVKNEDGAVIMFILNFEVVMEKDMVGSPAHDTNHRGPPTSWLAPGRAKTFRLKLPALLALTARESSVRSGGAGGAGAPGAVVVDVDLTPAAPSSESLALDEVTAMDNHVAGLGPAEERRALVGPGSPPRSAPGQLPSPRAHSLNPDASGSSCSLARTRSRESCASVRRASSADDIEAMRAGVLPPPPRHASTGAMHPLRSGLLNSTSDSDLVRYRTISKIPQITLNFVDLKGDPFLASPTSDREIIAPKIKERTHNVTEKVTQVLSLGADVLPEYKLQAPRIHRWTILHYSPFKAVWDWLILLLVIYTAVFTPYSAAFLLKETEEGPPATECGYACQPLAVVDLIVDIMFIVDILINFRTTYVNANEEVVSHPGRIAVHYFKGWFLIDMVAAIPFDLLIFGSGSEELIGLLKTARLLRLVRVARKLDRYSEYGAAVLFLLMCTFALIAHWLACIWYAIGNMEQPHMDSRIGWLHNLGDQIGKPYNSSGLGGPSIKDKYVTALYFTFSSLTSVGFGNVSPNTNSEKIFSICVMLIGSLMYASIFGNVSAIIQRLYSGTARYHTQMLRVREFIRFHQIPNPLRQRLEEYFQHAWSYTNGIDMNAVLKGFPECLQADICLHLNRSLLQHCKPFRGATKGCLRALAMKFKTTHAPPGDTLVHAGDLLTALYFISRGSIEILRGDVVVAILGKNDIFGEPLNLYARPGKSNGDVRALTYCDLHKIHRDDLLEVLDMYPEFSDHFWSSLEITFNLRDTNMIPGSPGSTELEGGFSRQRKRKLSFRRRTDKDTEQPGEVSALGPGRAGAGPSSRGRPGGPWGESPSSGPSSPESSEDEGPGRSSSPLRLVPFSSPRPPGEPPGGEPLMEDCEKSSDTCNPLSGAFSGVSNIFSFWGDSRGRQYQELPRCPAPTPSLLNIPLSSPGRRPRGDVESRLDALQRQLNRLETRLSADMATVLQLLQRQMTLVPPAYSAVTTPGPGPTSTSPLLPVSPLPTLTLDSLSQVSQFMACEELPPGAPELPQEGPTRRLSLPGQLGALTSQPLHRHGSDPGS
Test: primary screen, population patch clamp on CHO cells stably expressing hERG; higher = less effect of the substance
Screen size: about 310,000 compounds; about 14,000 (4.5%) showed an effect of 50% or more. Effects have a minus sign here. The sample holds strong results, similar compounds and a random draw of the others, so the mix is not that of the screen.
Response body: numeric value in %, unit text excluded.

C=C(C)CN=C1NN=C(c2cc(C)n(-c3ccc(C)cc3)c2C)CS1
4.06
Cc1cc(NC(=O)CN2CCCCC2)n(-c2ccccc2)n1
6.65
S=c1[nH]cc(-c2ccccc2)n1-c1ccccc1Cl
9.61

If you can, please state the reported hERG current change (%, negative = inhibition) at 10uM value of O=C(CCC(=O)N1CCOc2ccccc21)NCCCN1CCOCC1 .
5.91

If you can, please state the reported hERG current change (%, negative = inhibition) at 10uM value of CCN(CC)C(=O)CC(c1ccc(N(C)C)cc1)c1c(O)cc(OC)cc1OC (centres unmarked) .
18.7

If you can, please state the reported hERG current change (%, negative = inhibition) at 10uM value of COc1ccc(NC(=O)NNC(=O)COc2ccc3cc(Br)ccc3c2)c(OC)c1 .
19.2

If you can, please state the reported hERG current change (%, negative = inhibition) at 10uM value of COc1cc(CN2CCC(N3CCC(C(=O)N4CCCC4)CC3)CC2)cc2c1OCO2 .
-17.6

If you can, please state the reported hERG current change (%, negative = inhibition) at 10uM value of CCN1/C(=C/C=C/C=C/C=C/c2sc3ccccc3[n+]2CC)Sc2ccccc21.[I-] .
-49.5

###

Biological target: human ether-à-go-go-related gene (hERG) potassium channel (human);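 also: peak tail current of the secondary pulse compared with the same well before compound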
Test: primary screen, population patch clamp on CHO cells stably expressing hERG; higher = less effect of the substance
Among all 310,000 compounds or so, about 14,000 (4.5%) showed an effect of 50% or more. Effects have a minus sign here. This is one part of a sample in which strong results are shown more often than they occur.
readout.type: hERG current change (%, negative = inhibition) at 10uM (%)
Response body: numeric value in %, unit text excluded.

Use these answered entries as a reference point.
COc1ccc(C(=O)C2CN(C)CC2C(=O)c2ccc(OC)cc2)cc1 (stereo not drawn)
-57.9
CC1CCCC(C)N1C(=O)c1cc(F)c(F)cc1Cl (stereo not drawn)
16.1
Clc1ccc(-c2cnc3n2CCC3)cc1
-23.1
COCCNC(=O)c1cc(-c2ccc(OC)c(OC)c2)on1
-1.95
CCCNC(=O)c1ccc2c(=O)n3c(-c4ccc(C)cc4)csc3nc2c1
5.26

We next turn to a different compound, shown below.
If you can, please state the reported hERG current change (%, negative = inhibition) at 10uM value of CN1CC(C(=O)c2cccs2)C(c2ccc(Cl)cc2)C1 (stereo not drawn) .
-49.2

###

Target: human ether-à-go-go-related gene (hERG) potassium channel (human);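 also: peak tail current of the secondary pulse compared with the same well before compound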
Test: primary screen, population patch clamp on CHO cells stably expressing hERG; higher = less effect of the substance
The whole screen tested about 310,000 compounds, of which about 14,000 (4.5%) showed an effect of 50% or more. The effect is printed as a negative number. The list comes from a sample in which strong results are over-represented; it also holds close analogues and randomly drawn compounds.
Use yes when the recorded hERG current change (%, negative = inhibition) at 10uM is no lower than -20%; use no when it is lower.

// inclusive: hERG current change (%, negative = inhibition) at 10uM at least -20%? input: CC(=O)c1ccc(N2CCN(C(=O)c3nn(C)c4c3CS(=O)(=O)c3ccccc3-4)CC2)cc1
no

// inclusive: hERG current change (%, negative = inhibition) at 10uM at least -20%? input: COc1ccccc1N=Nc1c(O)[nH]c2ccc(Br)cc12
yes

// inclusive: hERG current change (%, negative = inhibition) at 10uM at least -20%? input: Cn1nc(C(=O)N2CCN(c3ccc(F)cc3)CC2)c2c1-c1ccccc1S(=O)(=O)C2
no

// inclusive: hERG current change (%, negative = inhibition) at 10uM at least -20%? input: COc1ccc2c(c1OC)C(=O)O[C@@H]2[C@H]1c2c(cc3c(c2OC)OCO3)CCN1C
yes

// inclusive: hERG current change (%, negative = inhibition) at 10uM at least -20%? input: Cc1ccc(N2CCN(C(=O)c3nn(C)c4c3CS(=O)(=O)c3ccccc3-4)CC2)c(C)c1
yes
